Ref: ChEMBL document CHEMBL4350985

# ASSAY TARGET: 5-hydroxytryptamine receptor 1A (Homo sapiens) (UniProt P08908)
# Sequence (P08908 whole entry): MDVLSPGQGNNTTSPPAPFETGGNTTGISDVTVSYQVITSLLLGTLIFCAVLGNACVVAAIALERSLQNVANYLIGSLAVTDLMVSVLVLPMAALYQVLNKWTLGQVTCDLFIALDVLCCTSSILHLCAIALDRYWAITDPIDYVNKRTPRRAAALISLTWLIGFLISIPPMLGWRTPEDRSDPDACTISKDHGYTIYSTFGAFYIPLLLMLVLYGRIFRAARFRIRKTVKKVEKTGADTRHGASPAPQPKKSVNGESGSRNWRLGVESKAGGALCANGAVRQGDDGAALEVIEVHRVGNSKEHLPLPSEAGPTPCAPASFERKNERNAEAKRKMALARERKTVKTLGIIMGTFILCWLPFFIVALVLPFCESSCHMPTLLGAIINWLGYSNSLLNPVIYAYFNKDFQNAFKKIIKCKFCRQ
# ASSAY EXPLANATION: Agonist activity at human recombinant 5HT1A receptor expressed in human HeLa cells assessed as increase in [35S]GTPgammaS binding incubated for 20 mins by liquid scintillation counter relative to control
# Assay type: functional, cell-based
Each entry gets not met if its Emax stays under 70%, and met if its Emax is 70% or above.

Does the reported Emax for c1ccc(OCCNCC2COC(c3ccccc3)(c3ccccc3)OC2)cc1 fall at or above the 70% mark?
met

Similarly, c1ccc(OCCNCCOC(c2ccccc2)c2ccccc2)cc1 ?
met

Similarly, COc1ccccc1OCCNCCC1COC(c2ccccc2)(c2ccccc2)O1 (stereo unspecified) ?
not met

Similarly, COc1ccccc1OCCNCC1CCOC(c2ccccc2)(c2ccccc2)O1 (stereo unspecified) ?
not met

Similarly, COc1ccccc1OCCNCC[C@H]1CO[C@H](C(c2ccccc2)c2ccccc2)O1 (relative stereo) ?
not met
